test system: MS2 coat protein; test: apparent KD of MS2 coat protein; designed switch direction (-1 OFF switch, 1 ON switch): 1; higher = weaker reporter binding; details: Eterna round: R95; input ligand: none
Classify on apparent KD of MS2 coat protein using lower range (below 40 nM), middle range (40 nM to below 600 nM), upper range (600 nM or more)

Query: Category lookup for the sequence GCUGCACAUGAGGAUCACCCAUGUCUUCGGAGUCGAGGAUAUGGUCACUGUAAACAGUGGCCAGAAGGCGAGUAGC [SS1 - Son of Teenbexe v6] (puzzle: Same State 1)
Reply: lower range

Query: Category lookup for the sequence AUUUAACAAGCUUUUUGCUCGUCUUAUAAACAUGAGGAUCACCCAUGUAAUAGCGUGAGAGUAAAUUAUUAAAUAAU [JMF 91] (puzzle: Sensor for hsa-mir-208a)
Reply: lower range

Query: Category lookup for the sequence GACAAUCUAUCUGAGGAUAUCAUGAAAAAAACAUGAGGAUCACCCAUGUGCAGGAAAACUGCAUAUGAGAAGGCAGAUAGAUUGC [salish99_SS2_r3_012] (puzzle: Same State 2)
Reply: upper range

Query: Category lookup for the sequence GGUCCAGCCUGAGCUGGACAAAAGCAUGUACAUGAGGAUCACCCAUGUUCAUGUACAAGCUUUUUGCUCGUCUUAAC [salish99_208a_r3_038] (puzzle: Sensor for hsa-mir-208a)
Reply: upper range

Query: Category lookup for the sequence GGUCCAGCCUGAGCUGGACAAAGGCAUGUACAUGAGGAUCACCCAUGUCAUGUACAAGCUUUUUGCUCGUCUUAAAA [JL mod - D87 - 3] (puzzle: Sensor for hsa-mir-208a)
Reply: middle range

Query: Category lookup for the sequence AGAUGGUGUGGAAAGGAUAUACUGUUGAGGACAUGAGGAUCACCCAUGUGGUAGAGGAGGUAAGGGUAGAAGGUUCGGGAUUGGU [JR_SS@_Sub020] (puzzle: Same State 2)
Reply: middle range

Query: Category lookup for the sequence GUAGCAUGCAGGCAGGAUAUUCAUAUUAAAACAUGAGGAUCACCCAUGUAGGCCAGAAGGCCUUGGGAGAAGGGCCACAUGCUAC [Xeonanis - 17] (puzzle: Same State 2)
Reply: upper range

Query: Category lookup for the sequence GGGCCAACGAGCGAGGAUAUGGCCUCGGACACAUGAGGAUCACCCAUGUCGAAAAGGUCAGGAGGCUAGAAGGCGUAAAAUGCCA [Tiqusoor] (puzzle: Same State 2)
Reply: lower range

Query: Category lookup for the sequence AGGCUCAGCAUGCAGGAUAUAGUCGCUGCGACAUGAGGAUCACCCAUGUGGUGUGAAAGAAAGCGCUAGAAGGGUAAAGUGAGUG [Beeran] (puzzle: Same State 2)
Reply: upper range

Query: Category lookup for the sequence AACAAUCUAUCUUAGGAUAUCAUGAAAUAAACAUGAGGAUCACCCAUGUGCAGGAAAACUGCAUAUGAGAAGGCAGAUAGAUUGA [salish99_ss2_r3_026] (puzzle: Same State 2)
Reply: middle range
